# System: HL-60(TB) leukemia
# protocol: NCI-60 one-dose screen, 48 h
# cond: 10 µM unless noted
The panel holds about 83,000 compounds, 20% with a hit somewhere; the sample as a whole holds those more often. Active and inactive are the calls of the source. The calls were made as follows: active = growth percent below 10; inactive = the rest.
Valid outcomes are listed here; reply with one: yes = active, no = inactive

The following compounds have reported results that may help.
>  <compound>
Cc1cc(Cl)nc(N(CCCNc2ccnc3cc(Cl)ccc23)Cc2cccs2)n1

>  <assigned.label>
yes

$$$$
>  <compound>
CN1CCCC1c1cccnc1 (stereo unspecified)

>  <assigned.label>
no

$$$$
>  <compound>
COc1cc(/C=C/C(=O)Nc2cccnc2Nc2cc(OC)c(OC)c(OC)c2)cc(OC)c1OC

>  <assigned.label>
no

$$$$
>  <compound>
COc1ccc(C2=CC(c3cc(OC)c(OC)c(OC)c3)NC(=O)N2)cc1OC (stereo unspecified)

>  <assigned.label>
yes

$$$$
>  <compound>
COc1ccc(-c2csc(NC(=O)N3CCN(c4cc5c(cc4F)c(=O)c(C(=O)O)cn5C4CC4)CC3)n2)cc1

>  <assigned.label>
yes

$$$$
>  <compound>
OCc1c(-c2ccccc2)nc2sccn12

>  <assigned.label>
no

$$$$
>  <compound>
O=C(CCc1nnc(Cn2cnc3nc[nH]c3c2=O)o1)c1nc2ncccc2[nH]1

>  <assigned.label>
no

$$$$
>  <compound>
O=P(O)(O)OCC(O)CO (stereo unspecified)

>  <assigned.label>
no

$$$$

What did this assay record as the result for O=C(CN1C(=O)S/C(=C\C(Cl)=C\c2ccccc2)C1=O)NCCc1ccc(O)cc1 ?
yes

Could you do the same for O=C1/C(=C/c2ccc3cccc(Cl)c3n2)SC(=S)N1CCc1ccc(O)cc1 , please?
no

Could you do the same for CCCNc1nc(SC)nc(-c2cccc(N)c2)c1C#N , please?
no
